Where do the numbers come from? From ChEMBL document CHEMBL3988442.

Recorded Percent Effect by entry
Test system: Trypanosoma cruzi
procedure.summary: Trypanosoma cruzi phosphomannomutase and mannose-1-phosphate guanylyltransferase assay
Assay type: functional
Parameters: scale not given: direction of the effect not stated beside the values
test.context: 10 µM
property.label: Percent Effect

compound | target.desc | property.label | readout.value
CSc1ccsc1C(=O)N1CCN(CC(C)(C)O)CC1 | Trypanosoma cruzi | Percent Effect | 1.13%
CCN1C(=O)CCC12CCCN(Cc1nccs1)CC2 (configuration not stated) | Trypanosoma cruzi | Percent Effect | 2.56%
Cc1ccc2c(ccn2CC(=O)NC[C@@H]2CCCN3CCCC[C@H]23)c1 | Trypanosoma cruzi | Percent Effect | 5.5%
O=C([C@@H]1C[C@@H]2CCN(CCc3ccccc3)C[C@H]2O1)N1CCCC1 | Trypanosoma cruzi | Percent Effect | -7.09%
O=S(=O)(N(Cc1ccccn1)C1CC1)N1CCCC1c1ccco1 (configuration not stated) | Trypanosoma cruzi | Percent Effect | 5.66%
CCc1ccc(OCC(O)CN2CCN(S(C)(=O)=O)CC2)cc1 (configuration not stated) | Trypanosoma cruzi | Percent Effect | -6.56%
CC(C)Oc1ncc(C(=O)N2CCC(NC(=O)C3CC3)CC2)cc1Cl | Trypanosoma cruzi | Percent Effect | -5.56%
